Tested on: PBMC from HLA-DQ2+ coeliac subjects
Assay: Interferon gamma ELISPOT, second round wheat gliadin and glutenin 16mer library
Format: cell-based, human
Settings: 16mers pre-treated with transglutaminase; 18 or 28 subjects
measured quantity: subjects with 10-40% of maximal peptide-specific response

G-LQPFPQPQLSYSQP-G: wheat 16mer, second round library (GLQPFPQPQLSYSQPG; Description of Artificial Sequence: Synthetic gluten peptide) : 2/28
G-QVSFQQPQQQYPSP-G: wheat 16mer, second round library : 4/28
G-QQPFPQPQQPFSQQ-G: wheat 16mer, second round library : 8/28
GQVVNNHGQTVFNDIG [wheat 16mer, second round library] : 4/18
G-QQQFSQPQQQFPQP-G: wheat 16mer, second round library : 7/28
G-QQPQFSQQQQIPVI-G: wheat 16mer, second round library (PFPQPQQPFPW; Description of Artificial Sequence: Synthetic gluten peptide) : Nil
